Molecular target: BcX E78Q (Niallia circulans, UniProt P09850, E106Q)
Construct: made in house
Assay: NMR titration (1H-15N HSQC) of 15N-labeled BcX E78Q with ligand
Type: binding, Bacillus circulans
Conditions: α-helix region; global fit of CSP; pH 5.8, 20 °C; read-out: Dissociation constant KD, helix
Description: Solutions of ^15N-labeled BcX E78Q and BcX E78Q-Y69A (100 µM) were titrated with Dia-X3 and Para-X3. Concentrations of up to 50 mM for Dia-X3 and 8 mM for Para-X3 were used. […] Spectra were processed with Topspin (Bruker) and analyzed using CCPN Analysis v.2.4.2 (Vranken et al. [2005]). […] The fractional populations of the free and bound states were calculated using the peak height (I) as follows:4 ffree=Ifree/Ifree+Ibound,fbound=Ibound/Ifree+Ibound […]
READOUT_NAME: pKd
FYI, pKd means -log10 of a concentration in mol per litre.

# input compound: CC1(C)CC(O[C@@H]2OC[C@@H](O[C@@H]3OC[C@@H](O[C@@H]4OC[C@@H](O)[C@H](O)[C@H]4O)[C@H](O)[C@H]3O)[C@H](O)[C@H]2O)CC(C)(C)N1[O] [Para-X3] ; wanted: its pKd
2.80

====

biological target: BcX E78Q-Y69A (Niallia circulans, UniProt P09850, E106Q/Y97A); construct: made in house; assay: NMR titration (1H-15N HSQC) of 15N-labeled BcX E78Q-Y69A with ligand; assay type: binding, Bacillus circulans; conditions: active site; fit of CSP curves (fast exchange); NB = no binding; read-out: Dissociation constant KD, active site
READOUT_NAME: Kd

Give Kd (BcX E78Q-Y69A (Niallia circulans, UniProt P09850, E106Q/Y97A)) of the following compound: CC1(C)CC(O[C@@H]2OC[C@@H](O[C@@H]3OC[C@@H](O[C@@H]4OC[C@@H](O)[C@H](O)[C@H]4O)[C@H](O)[C@H]3O)[C@H](O)[C@H]2O)CC(C)(C)N1[O] [Para-X3]
> 8 mM
